# targetOrTestSystem: HU alpha-beta heterodimer (Escherichia coli, UniProt P0ACF0;P0ACF4 1-90;1-90)
# Sequence (P0ACF0 whole entry, chain 1 of 2): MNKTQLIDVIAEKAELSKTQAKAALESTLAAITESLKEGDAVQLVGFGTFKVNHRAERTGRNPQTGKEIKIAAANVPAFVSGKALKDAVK
# Sequence (P0ACF4 whole entry, chain 2 of 2): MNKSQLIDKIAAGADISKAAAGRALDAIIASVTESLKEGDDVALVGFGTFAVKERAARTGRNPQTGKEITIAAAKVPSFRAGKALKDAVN
# assayName: EMSA
property: pKd
As a rule, pKd stands for the negative log10 of the concentration, concentration in M.

The binder identified as AGTCTAGAGTGCAGTTGAGTCCTTGCTACGACGGATCCCTTAGG (ssDNA) [ssDNA D-44] registered its pKd at 7.40
